Assign Plant response rating (0 to 10; 0 is no effect, 10 is complete control), Soybean to each entry below.
test system: soybean; experiment: Test B pre/postemergence soybean; assay type: in vivo, Glycine max; conditions: Rate 250 g/ha; Postemergence

Task: Could you share which Plant response rating (0 to 10; 0 is no effect, 10 is complete control), Soybean value was measured for CON=C(Cn1c(=O)on(C(=O)N(c2ccc(F)cc2)C(C)C)c1=O)C(F)(F)F ?
Result: 4

Task: Could you share which Plant response rating (0 to 10; 0 is no effect, 10 is complete control), Soybean value was measured for COC(=O)Cn1c(=O)on(C(=O)N(c2ccc(F)cc2)C(C)C)c1=O ?
Result: 1

Task: Could you share which Plant response rating (0 to 10; 0 is no effect, 10 is complete control), Soybean value was measured for CC(C)N(C(=O)n1oc(=O)n(-c2ccc(OC(F)(F)F)cc2)c1=O)c1ccc(F)cc1 ?
Result: 3

Task: Could you share which Plant response rating (0 to 10; 0 is no effect, 10 is complete control), Soybean value was measured for CC(=O)OCCCCn1c(=O)on(C(=O)N(c2ccc(F)cc2)C(C)C)c1=O ?
Result: 4

Task: Could you share which Plant response rating (0 to 10; 0 is no effect, 10 is complete control), Soybean value was measured for CCCCc1ccc(N(C(=O)n2oc(=O)n(-c3ccccc3C)c2=O)C(C)C)cc1 ?
Result: 1

====

Assign Wild oats plant response rating to each entry below.
tested on: wild oat; assay: Test B pre/postemergence wild oat; assay type: in vivo, Avena fatua; conditions: Rate 500 g/ha, Postemergence; scale 0 to 10, 0 no effect, 10 complete control
Give only the figure.

Task: Could you share which Wild oats plant response rating value was measured for CC(C)N(C(=O)n1oc(=O)n(-c2cccc3c2CCCC3)c1=O)c1ccc(F)cc1 ?
Result: 0

Task: Could you share which Wild oats plant response rating value was measured for CON=C(Cn1c(=O)on(C(=O)N(c2ccc(F)cc2)C(C)C)c1=O)C(F)(F)F ?
Result: 2

Task: Could you share which Wild oats plant response rating value was measured for Cc1ccccc1-n1c(=O)on(C(=O)N(c2ccc(F)c(F)c2)C(C)C)c1=O ?
Result: 0

Task: Could you share which Wild oats plant response rating value was measured for Cc1ccccc1-n1c(=O)on(C(=O)N(c2ccc3c(c2)CCC3)C(C)C)c1=O ?
Result: 0

====

test system: rape; experiment: Test B pre/postemergence rape; format: in vivo, Brassica napus; conditions: Rate 125 g/ha; Preemergence; scale of 0 to 10 where 0 is no effect and 10 is complete control
Measured attribute: Rape plant response rating

Task: Could you share which Rape plant response rating value was measured for CC(C)N(C(=O)n1oc(=O)n(CC(C)(C)C)c1=O)c1ccc(F)cc1 ?
Result: 2

Task: Could you share which Rape plant response rating value was measured for CC(C)N(C(=O)n1oc(=O)n(-c2cccnc2)c1=O)c1ccccc1 ?
Result: 0

Task: Could you share which Rape plant response rating value was measured for CC(C)N(C(=O)n1oc(=O)n([C@H](C)c2ccccc2)c1=O)c1ccc(F)cc1F ?
Result: 0

Task: Could you share which Rape plant response rating value was measured for CC(C)N(C(=O)n1oc(=O)n(CC=Cc2ccccc2)c1=O)c1ccc(F)cc1 ?
Result: 0

Task: Could you share which Rape plant response rating value was measured for CC(C)N(C(=O)n1oc(=O)n(-c2cccnc2)c1=O)c1ccc(F)cc1 ?
Result: 0

Task: Could you share which Rape plant response rating value was measured for C=CCn1c(=O)on(C(=O)N(c2ccc(F)cc2)C2CCCCCC2)c1=O ?
Result: 0

====

system: surinam grass; assay: Test B pre/postemergence surinam grass; assay type: in vivo, Brachiaria decumbens; details: Preemergence, Rate 62 g/ha; scale of 0 to 10 where 0 is no effect and 10 is complete control
Measured attribute: Plant response rating, B. signalgrass
Give only the figure.

Task: Could you share which Plant response rating, B. signalgrass value was measured for COC(C)n1c(=O)on(C(=O)N(c2ccccc2)C(C)C)c1=O (stereo not shown) [Compound 441] ?
Result: 0

Task: Could you share which Plant response rating, B. signalgrass value was measured for CC(C)N(C(=O)n1oc(=O)n(C(C)C(=O)N(C)C)c1=O)c1ccc(F)cc1F (stereo not shown) [Compound 481] ?
Result: 7

Task: Could you share which Plant response rating, B. signalgrass value was measured for CC(C)C(=O)Cn1c(=O)on(C(=O)N(c2ccccc2)C(C)C)c1=O [Compound 485] ?
Result: 3

Task: Could you share which Plant response rating, B. signalgrass value was measured for CC(C)N(C(=O)n1oc(=O)n(CCC(F)(F)F)c1=O)c1ccc(F)cc1F [Compound 525] ?
Result: 9

====

test system: velvetleaf; test: Test B pre/postemergence velvetleaf; format: in vivo, Abutilon theophrasti; conditions: Preemergence, Rate 250 g/ha; scale of 0 to 10 where 0 is no effect and 10 is complete control
Measured attribute: Velvetleaf plant response rating
Give only the figure.

Task: Could you share which Velvetleaf plant response rating value was measured for COC(=O)Cn1c(=O)on(C(=O)N(c2ccc(F)cc2)C(C)C)c1=O ?
Result: 0

Task: Could you share which Velvetleaf plant response rating value was measured for CC(=O)OCCCCn1c(=O)on(C(=O)N(c2ccc(F)cc2)C(C)C)c1=O ?
Result: 0

Task: Could you share which Velvetleaf plant response rating value was measured for CSCCn1c(=O)on(C(=O)N(c2ccc(F)cc2)C(C)C)c1=O ?
Result: 3

Task: Could you share which Velvetleaf plant response rating value was measured for CCOC(=O)C(C)N(C(=O)n1oc(=O)n(CC)c1=O)c1ccc(F)cc1 (stereo not drawn) ?
Result: 0

Task: Could you share which Velvetleaf plant response rating value was measured for CC(C)N(C(=O)n1oc(=O)n(C2CCCC2)c1=O)c1ccccc1 ?
Result: 5

Task: Could you share which Velvetleaf plant response rating value was measured for COC(=O)CCCn1c(=O)on(C(=O)N(c2ccc(F)cc2)C(C)C)c1=O ?
Result: 0

Task: Could you share which Velvetleaf plant response rating value was measured for CC(C)N(C(=O)n1oc(=O)n(-c2cccnc2)c1=O)c1ccc(F)cc1 ?
Result: 0

Task: Could you share which Velvetleaf plant response rating value was measured for Cc1ccccc1N(C(=O)n1oc(=O)n(-c2ccccc2C)c1=O)C(C)C ?
Result: 0

Task: Could you share which Velvetleaf plant response rating value was measured for COCn1c(=O)on(C(=O)N(c2ccc(F)cc2)C(C)C)c1=O ?
Result: 7

====

tested on: wheat; experiment: Test B pre/postemergence wheat; type: in vivo, Triticum aestivum; conditions: Rate 125 g/ha, Postemergence; scale of 0 to 10 where 0 is no effect and 10 is complete control
Measured attribute: Wheat plant response rating

Task: I'm curious: which Wheat plant response rating was measured for CC(C)N(C(=O)n1oc(=O)n(C2CCCC2)c1=O)c1ccccc1 tested on wheat?
Result: 0

Task: I'm curious: which Wheat plant response rating was measured for CC(C)N(C(=O)n1oc(=O)n(-c2ccsc2)c1=O)c1ccc(F)cc1 tested on wheat?
Result: 0

Task: I'm curious: which Wheat plant response rating was measured for CC(C)N(C(=O)n1oc(=O)n(Cc2nnsc2Cl)c1=O)c1ccccc1 tested on wheat?
Result: 0

Task: I'm curious: which Wheat plant response rating was measured for COCn1c(=O)on(C(=O)N(c2ccc(F)cc2)C(C)C)c1=O tested on wheat?
Result: 6

====

Assign Redroot pigweed plant response rating to each entry below.
system: pigweed; assay: Test B pre/postemergence pigweed; assay type: in vivo, Amaranthus retroflexus; conditions: Postemergence, Rate 250 g/ha; scale 0 to 10, 0 no effect, 10 complete control

Task: Could you share which Redroot pigweed plant response rating value was measured for Cc1cccc(C(C)C)c1-n1c(=O)on(C(=O)N(c2ccc(F)cc2)C(C)C)c1=O ?
Result: 0

Task: Could you share which Redroot pigweed plant response rating value was measured for CCN(Cc1ccccc1)C(=O)n1oc(=O)n(-c2c(C)cccc2C)c1=O ?
Result: 0

Task: Could you share which Redroot pigweed plant response rating value was measured for CC(C)N(C(=O)n1oc(=O)n(-c2ccccc2C(F)(F)F)c1=O)c1ccc(F)cc1 ?
Result: 2

Task: Could you share which Redroot pigweed plant response rating value was measured for CC(C)N(C(=O)n1oc(=O)n(Cc2ccccc2)c1=O)c1ccc(F)cc1 ?
Result: 3

Task: Could you share which Redroot pigweed plant response rating value was measured for CC(C)N(C(=O)n1oc(=O)n(Cc2cccs2)c1=O)c1ccc(F)cc1F ?
Result: 5

Task: Could you share which Redroot pigweed plant response rating value was measured for CC(C)N(C(=O)n1oc(=O)n(-c2ccccc2)c1=O)c1ccc(F)cc1 ?
Result: 0

====

Assign Plant response rating, Giant foxtail to each entry below.
tested on: giant foxtail; assay: Test B pre/postemergence giant foxtail; assay type: in vivo, Setaria faberii; conditions: Rate 250 g/ha, Postemergence; scale of 0 to 10 where 0 is no effect and 10 is complete control

Task: Could you share which Plant response rating, Giant foxtail value was measured for CC(C)N(C(=O)n1oc(=O)n(CCC(F)=C(F)F)c1=O)c1ccccc1 [Compound 566] ?
Result: 8

Task: Could you share which Plant response rating, Giant foxtail value was measured for CCC=CCn1c(=O)on(C(=O)N(c2ccc(Cl)cc2)C(C)C)c1=O [Compound 552] ?
Result: 3

Task: Could you share which Plant response rating, Giant foxtail value was measured for Cc1noc(C)c1Cn1c(=O)on(C(=O)N(c2ccccc2)C(C)C)c1=O [Compound 569] ?
Result: 4

Task: Could you share which Plant response rating, Giant foxtail value was measured for CCN(C(=O)n1oc(=O)n(Cc2ccco2)c1=O)C1CCCCC1 [Compound 312] ?
Result: 0

Task: Could you share which Plant response rating, Giant foxtail value was measured for Cc1cccc(C)c1-n1c(=O)on(C(=O)N(C(C)C)C2C=CCCC2)c1=O (centres unmarked) [Compound 273] ?
Result: 0

This collection of values is drawn from patent US6737383B1.
